# Test system: PC14
# assayComment: Cell-based assay, anti-proliferative activity (Cell Counting Kit-8, 72 hours)
# testSettings: Homo sapiens, PC-14, 72 h, read-out: IC50 (μM) PC14
Structures can show the parent of a compound that is named as a salt.
Let's look at some compounds and their measured IC50.
recordedMetric: IC50

- COc1cc(OC)c(-c2cn3ccc(N[C@H]4CC[C@H](CN5CCN(Cc6ccccc6)CC5)CC4)cc3n2)cc1Cl [Example 278, 2,2,2-trifluoroacetate]: 1.3 µM
- COc1cc(OC)c(-c2cn3ccc(N4CCC(CCN)CC4)cc3n2)cc1Cl [Example 72, dihydrochloride]: 2.5 µM
- COc1cc(OC)c(-c2cn3ccc(NC(=O)[C@H](C(C)C)N(C)C)cc3n2)cc1Cl [Example 272]: 0.98 µM
- COc1cc(OC)c(-c2cn3ccc(NC(=O)CN)cc3n2)cc1Cl [Example 166]: 6.5 µM

* * *

# targetSystem: SUV39H2 (Homo sapiens (Human), UniProt Q9H5I1)
# Sequence (Q9H5I1 whole entry): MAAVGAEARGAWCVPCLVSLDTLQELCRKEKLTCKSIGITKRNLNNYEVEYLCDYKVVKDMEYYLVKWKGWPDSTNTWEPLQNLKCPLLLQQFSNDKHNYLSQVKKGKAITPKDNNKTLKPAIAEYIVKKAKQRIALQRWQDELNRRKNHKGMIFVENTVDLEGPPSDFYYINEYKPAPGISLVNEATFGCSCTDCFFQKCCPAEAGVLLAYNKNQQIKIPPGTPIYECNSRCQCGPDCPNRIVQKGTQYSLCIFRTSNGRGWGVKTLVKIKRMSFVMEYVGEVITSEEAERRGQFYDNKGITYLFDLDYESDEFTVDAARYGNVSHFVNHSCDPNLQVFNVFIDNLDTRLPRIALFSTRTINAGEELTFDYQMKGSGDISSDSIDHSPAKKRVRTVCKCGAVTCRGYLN
# assayComment: biochemical
# Type: biochemical
# testSettings: 3H-SAM 100 nM, H3 Histone Peptide 350 nM, room temperature 3 hours
Structures can show the parent of a compound that is named as a salt.
Listed below: IC50 values for each entry.
recordedMetric: IC50 (nM)

* COc1cc(OC)c(-c2cn3ccc(N4CCN(c5nc(N)nc(N(C)C)n5)CC4)cc3n2)cc1Cl [Example 440] | 35.8
* COc1cc(OC)c(-c2cn3ccc(N[C@H]4C[C@H]5CC[C@@H](C4)N5C(=O)c4ccccc4)cc3n2)cc1Cl [Example 457] | 34.8
* COc1cc(OC)c(-c2cn3ccc(N4CCN(c5cnc(N6CCOCC6)nc5)CC4)cc3n2)cc1Cl [Example 335] | 68.5
* COc1cc(OC)c(-c2cn3ccc(N4CC[C@H](NCc5ccnc(F)c5)C4)cc3n2)cc1Cl [Example 412, dihydrochloride] | 6.83
* COc1cc(OC)c(-c2cn3ccc(N4CCN(c5ccnc(N6CCC(O)C6)n5)CC4)cc3n2)cc1Cl (stereo not shown) [Example 346] | 15.3
* COc1cc(OC)c(-c2cn3ccc(N[C@H]4CC[C@@H](N(C)Cc5ccc(F)cc5)CC4)cc3n2)cc1Cl [Example 342] | 38.8
* COc1cc(OC)c(-c2cn3ccc(N4CCN(c5cnc(N6CCC(NS(=O)(=O)C7CC7)CC6)nc5)CC4)cc3n2)cc1Cl [Example 393] | 28.3

* * *

# System: CCD-18Co
# assayComment: Cell-based assay, anti-proliferative activity (Cell Counting Kit-8, 72 hours)
# testSettings: Homo sapiens; CCD-18Co cells, Cell Counting Kit-8, 72 hours; read-out: IC50 (μM) CCD-18Co
Counter-ions that a name gives are not always drawn.
recordedMetric: IC50 (µM)

* COc1cc(OC)c(-c2cn3ccc(C4=CCOCC4)cc3n2)cc1Cl | 11
* COc1cc(OC)c(-c2cn3ccc(NCCNC(C)=O)cc3n2)cc1Cl | 31
* COc1cc(OC)c(-c2cn3ccc(N4CCC(NS(C)(=O)=O)C4)cc3n2)cc1Cl (stereo not shown) | 15
* COc1cc(OC)c(-c2cn3ccc(N4CCC(NS(=O)(=O)Cc5ccccc5)CC4)cc3n2)cc1Cl | 2
* COc1cc(OC)c(-c2cn3ccc(C4=CCN(CCN5CCOCC5)CC4)cc3n2)cc1Cl | 6.3
* COc1cc(OC)c(-c2cn3ccc(N4CCN(CCN(C)C)CC4)cc3n2)cc1Cl | 5.6
* COc1cc(OC)c(-c2cn3ccc(N4CCN(CC#N)CC4)cc3n2)cc1Cl | 5.3
* COc1cc(OCCCN(C)C)c(-c2cn3ccc(N4CCNCC4)nc3n2)cc1Cl | 35
* COc1cc(OC)c(-c2cn3ccc(C4=CCC5(CC4)OCCO5)cc3n2)cc1Cl | 7.7
* COc1cc(OC)c(-c2cn3ccc(N4CC[C@@H](NC(=O)OC(C)(C)C)C4)nc3n2)cc1Cl | 4.8
* COc1cc(OC)c(-c2cn3cnc(N)cc3n2)cc1Cl | 6.8
* CCCCCNC1CCN(c2ccn3cc(-c4cc(Cl)c(OC)cc4OC)nc3c2)CC1 | 1.3
* COc1cc(OC)c(-c2cn3ccc(N4CCC(CO)CC4)cc3n2)cc1Cl | 3.1
* COc1cc(OCCCN(C)C)c(-c2cn3ccc(N4CCC(NS(=O)(=O)C5CC5)CC4)cc3n2)cc1Cl | 5.6
* COc1cc(OC)c(-c2cn3ccc(N4CCN(C)CC4)cc3n2)cc1Cl | 6.8
* COc1cc(OC)c(-c2cn3ccc(N)cc3n2)cc1Br | 3.8
* COc1cc(OC)c(-c2cn3ccc(N4CCCC4)nc3n2)cc1Br | 6.8
* COc1cc(OC)c(-c2cn3ccc(N4CCC(N)C4)cc3n2)cc1C#N (stereo not shown) | 5.6
* COc1cc(OCCCN(C)C)c(-c2cn3ccc(N4CCCN(S(=O)(=O)C5CC5)CC4)cc3n2)cc1Cl | 6
* COc1cc(OC)c(-c2cn3ccc(N4CCC(CNC(=O)OC(C)(C)C)CC4)nc3n2)cc1Cl | 6.3
* COc1ccc(-c2cn3ccc(N4CCCC4)cc3n2)cc1C#N [Example 21, hydrobromide] | 5.5
* CCOP(=O)(CCN1CC=C(c2ccn3cc(-c4cc(Cl)c(OC)cc4OC)nc3c2)CC1)OCC | 10
* COc1cc(OC)c(-c2cn3ccc(N4CCC(NC(C)=O)C4)nc3n2)cc1Br (stereo not shown) | 27
* COc1cc(OC)c(-c2cn3ccc(N4CCC(N5CCCS5(=O)=O)CC4)cc3n2)cc1Cl | 2.6
* COc1cc(OC)c(-c2cn3ccc(N4CCCN(S(=O)(=O)C(F)(F)F)CC4)cc3n2)cc1Cl | 1.4
* COc1cc(OC)c(-c2cn3ccc(N4CCC(N)CC4)cc3n2)cc1Cl | 6.7
* COc1cc(OC)c(-c2cn3ccc(N4CCCC4)cc3n2)cc1Cl [Example 4, hydrobromide] | 1.1
* COc1cc(OC)c(-c2cn3ccc(N4CCOCC4)nc3n2)cc1Cl [Example 79, hydrobromide] | 22
* COc1cc(OC)c(-c2cn3ccc(N4CCNCC4)nc3n2)cc1Cl | 11
* COc1cc(OC)c(-c2cn3ccc(N4CCN(CCC#N)CC4)cc3n2)cc1Cl | 5.9
* COc1cc(OC)c(-c2cn3cc(NCCN)c(N4CCOCC4)cc3n2)cc1Cl | 3
* COc1cc(OC)c(-c2cn3ccc(C4=CCN(CCC#N)CC4)cc3n2)cc1Cl | 2.6
* CCOC(=O)CCN1CC=C(c2ccn3cc(-c4cc(Cl)c(OC)cc4OC)nc3c2)CC1 | 56
* COc1cc(OC)c(-c2cn3ccc(N4CCC(NC(=O)OC(C)(C)C)C4)nc3n2)cc1C#N (stereo not shown) | 6.4
